Test system: Xanthomonas campestris pv. campestris (Xcc) ATCC 33913
EXPERIMENT SUMMARY: Minimal inhibitory concentration (MIC) assay
Type: cell-based
STUDY CONDITIONS: 24 h, 28° C., ND = non-detected at tested concentrations (up to 200 μg/ml)
Square brackets hold non-standard residues; d marks the D form. Peptide text beside a SMILES is read from it. * marks the point of attachment. Palmitoyl = CCCCCCCCCCCCCCCC(=O)*
Quick reference for Average MIC among some compounds
PROPERTY: Average MIC (µg/mL)

# COMPOUND, PROPERTY, NUMERIC VALUE
records = [
    ("CCCCCCCCCCCCCCCC(=O)N[C@@H](Cc1ccccc1)C(=O)N[C@H](CCCCN)C(=O)N[C@@H](Cc1ccccc1)C(=O)N[C@H](CCCCN)C(=O)N[C@@H](Cc1ccccc1)C(N)=O [lipopeptide #21, p-FkFkF] (Palmitoyl-F[dK]F[dK]F-NH2)", "Average MIC", 38),
    ("CCCCCCCCCCCCCCCC(=O)N[C@H](CCCCN)C(=O)N[C@@H](Cc1ccccc1)C(=O)N[C@H](CCCCN)C(=O)N[C@H](CCCCN)C(=O)N[C@@H](Cc1ccccc1)C(N)=O [lipopeptide #9, p-kFkkF] (Palmitoyl-[dK]F[dK][dK]F-NH2)", "Average MIC", 5),
    ("CCCCCCCCCCCCCCCC(=O)N[C@H](CCCCN)C(=O)N[C@H](CCCCN)C(=O)N[C@@H](Cc1ccccc1)C(=O)N[C@@H](Cc1ccccc1)C(=O)N[C@@H](Cc1ccccc1)C(N)=O [lipopeptide #17, p-kkFFF] (Palmitoyl-[dK][dK]FFF-NH2)", "Average MIC", 50),
    ("CCCCCCCCCCCCCCCC(=O)N[C@H](CCCCN)C(=O)N[C@H](CCCCN)C(=O)N[C@H](CCCCN)C(=O)N[C@@H](Cc1ccccc1)C(=O)N[C@H](CCCCN)C(N)=O [lipopeptide #3, p-kkkFk] (Palmitoyl-[dK][dK][dK]F[dK]-NH2)", "Average MIC", 4),
]
